Cited source: patent US12209081B2

Recorded IC50 for the following compounds
Biological target: mouse TRPM3α2 (mTRPM3) ion channel (Mus musculus (Mouse))
Sequence (J9SQF3 other isoform, or with tags, fused parts or gaps): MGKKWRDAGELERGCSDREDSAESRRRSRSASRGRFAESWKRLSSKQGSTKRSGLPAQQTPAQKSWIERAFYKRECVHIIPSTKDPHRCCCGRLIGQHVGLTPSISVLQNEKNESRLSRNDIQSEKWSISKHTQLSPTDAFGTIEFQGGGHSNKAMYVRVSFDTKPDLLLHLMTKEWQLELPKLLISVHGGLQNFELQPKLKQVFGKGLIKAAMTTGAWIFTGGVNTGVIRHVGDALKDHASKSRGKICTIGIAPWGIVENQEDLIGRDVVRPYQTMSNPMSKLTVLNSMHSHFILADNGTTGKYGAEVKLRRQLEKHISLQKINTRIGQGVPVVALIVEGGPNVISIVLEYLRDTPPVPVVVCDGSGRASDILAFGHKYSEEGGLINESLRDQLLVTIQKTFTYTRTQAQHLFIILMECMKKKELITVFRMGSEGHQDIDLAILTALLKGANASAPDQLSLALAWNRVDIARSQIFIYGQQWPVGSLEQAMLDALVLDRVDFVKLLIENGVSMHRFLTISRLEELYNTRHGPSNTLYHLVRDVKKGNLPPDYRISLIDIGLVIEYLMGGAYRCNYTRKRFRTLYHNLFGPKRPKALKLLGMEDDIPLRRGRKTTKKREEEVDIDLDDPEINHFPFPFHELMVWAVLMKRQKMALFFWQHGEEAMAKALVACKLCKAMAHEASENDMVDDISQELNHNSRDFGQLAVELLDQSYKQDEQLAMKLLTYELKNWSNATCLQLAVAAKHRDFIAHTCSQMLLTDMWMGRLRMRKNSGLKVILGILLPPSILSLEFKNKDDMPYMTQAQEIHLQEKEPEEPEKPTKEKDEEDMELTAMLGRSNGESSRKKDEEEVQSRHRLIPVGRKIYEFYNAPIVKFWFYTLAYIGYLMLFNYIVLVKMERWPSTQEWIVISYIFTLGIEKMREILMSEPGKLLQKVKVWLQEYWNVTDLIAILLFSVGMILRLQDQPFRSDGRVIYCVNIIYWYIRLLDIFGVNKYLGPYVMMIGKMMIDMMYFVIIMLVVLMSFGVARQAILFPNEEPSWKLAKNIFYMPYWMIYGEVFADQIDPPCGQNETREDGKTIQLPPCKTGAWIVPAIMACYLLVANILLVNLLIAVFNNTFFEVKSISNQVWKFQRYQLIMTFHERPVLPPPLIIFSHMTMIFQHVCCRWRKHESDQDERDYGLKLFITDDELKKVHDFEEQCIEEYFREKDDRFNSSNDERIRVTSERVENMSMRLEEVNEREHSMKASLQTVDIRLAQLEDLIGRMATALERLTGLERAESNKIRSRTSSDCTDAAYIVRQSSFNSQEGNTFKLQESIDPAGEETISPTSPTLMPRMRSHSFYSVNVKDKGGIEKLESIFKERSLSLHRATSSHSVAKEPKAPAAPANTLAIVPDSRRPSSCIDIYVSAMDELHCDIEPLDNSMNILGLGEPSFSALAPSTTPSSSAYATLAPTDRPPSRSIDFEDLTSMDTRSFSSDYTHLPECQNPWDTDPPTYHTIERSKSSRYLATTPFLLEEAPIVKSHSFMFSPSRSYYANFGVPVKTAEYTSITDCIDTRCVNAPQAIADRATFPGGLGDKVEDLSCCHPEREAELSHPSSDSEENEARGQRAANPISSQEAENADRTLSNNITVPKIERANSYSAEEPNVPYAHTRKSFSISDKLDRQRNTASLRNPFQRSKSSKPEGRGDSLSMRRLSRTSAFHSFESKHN
Experiment: TRPM3 ion channel driven Ca2+ uptake, Fluo-4 AM assay, mTRPM3alpha2 overexpressing flip-in HEK293 cells stimulated with pregnenolone sulfate
Assay type: cell-based
Settings: PS 50 μM, cpds 200-299
Protocol: Part B Monitoring the TRPM3 Ion Channel Driven Ca^2+ Uptake. […] For mTRPM3, the intracellular Ca^2+ was measured with a Calcium responsive dye. […] Prior the cell seeding (±2000 cells/well into a black, 384 well plate (Greiner)) the diluted compound was added in the assay plate, together with the PS dissolved in Krebs buffer containing Calcium. […] Directly after cell addition the plates were read on an Envision fluorescence reader (Perkin Elmer) by an Excitation of 485 nm and emission at 535 nm. […]

Cc1oc2ccc(OCc3cccnc3N(C)C)cc2c1C(=O)N[C@@H](CO)C(N)=O	< 1 µM

Just so you know, measured IC50 for Cc1ncsc1COc1ccc2oc(C)c(C(N)=O)c2c1 came out at < 1 µM

Just so you know, measured IC50 for Cc1oc2ccc(OCc3c[nH]nc3C(F)(F)F)cc2c1C(=O)N[C@@H](CO)C(N)=O came out at < 1 µM

Just so you know, measured IC50 for Cc1oc2ccc(OCc3ccncn3)cc2c1C(=O)N[C@@H](CO)C(N)=O came out at < 1 µM

Just so you know, measured IC50 for Cc1cc(COc2ccc3oc(C)c(C(=O)N[C@@H](CO)C(N)=O)c3c2)no1 came out at < 1 µM

Just so you know, measured IC50 for Cc1oc2ccc(OCC3COC3)cc2c1C(=O)N[C@@H](CO)C(N)=O came out at < 1 µM

Just so you know, measured IC50 for Cc1oc2ccc(OCc3cccnc3OC(F)F)cc2c1C(=O)N[C@@H](CO)C(N)=O came out at < 1 µM

Just so you know, measured IC50 for Cc1ccncc1COc1ccc2oc(C)c(C(=O)N[C@@H](CO)C(N)=O)c2c1 came out at < 1 µM

Just so you know, measured IC50 for Cc1ncsc1COc1ccc2oc(C)c(C(=O)N[C@@H](C(N)=O)C(C)C)c2c1 came out at < 1 µM

Just so you know, measured IC50 for Cc1oc2ccc(OCc3ncsc3C)cc2c1C(=O)N[C@@H](CO)C(N)=O came out at < 1 µM

Just so you know, measured IC50 for Cc1oc2ccc(OCc3cccnn3)cc2c1C(=O)N[C@@H](CO)C(N)=O came out at < 1 µM

Just so you know, measured IC50 for Cc1ncsc1COc1ccc2oc(C)c(C(=O)N[C@@H](CO)C(N)=O)c2c1 came out at < 1 µM
